Run description: Fraction unbound in rat plasma
Assay type: ADME, cell-free
Below: a set of entries, each annotated with reported fraction unbound.

Smiles structure: Cc1cn(-c2ccc3n(c2=O)CCN(CCOc2ccc(Cl)cc2C(F)(F)F)C3=O)cn1
fraction unbound: 0.0063
//
Smiles structure: Cc1cn(-c2ccc3n(c2=O)CCN(CCOc2ccc(F)cc2C(F)(F)F)C3=O)cn1
fraction unbound: 0.055

###

Run description: Apparent intrinsic clearance in human hepatocytes
Assay type: ADME, cell-based, Hepatocyte
Assay setup: read-out: CLH(app)
Measured property: CLint scaled (mL/min/kg)

Smiles structure: Cc1cn(-c2ccc3c(c2O)CCN(Cc2cccc(C(F)(F)F)c2)C3=O)cn1
Operator: =
Reported result: 90.5
--
Smiles structure: Cc1cn(-c2ccc3n(c2=O)CCN(CC2(c4ccc(Cl)cc4)CC2)C3=O)cn1
Operator: <
Reported result: 2.8

Values compiled from ChEMBL document CHEMBL3124856.
